Numbers sourced from ChEMBL document CHEMBL3045958.

- system: AMP deaminase 1 (Oryctolagus cuniculus)
- Sequence (P81072 whole entry): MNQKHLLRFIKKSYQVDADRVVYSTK
value type: IC50 (nM)

> print(dat)
                              smiles.string                                   system  test.result
1  O=P(O)(O)OC[C@H]1O[C@@H](c2n[nH]c3cncnc23)[C@H](O)[C@@H]1O  AMP deaminase 1 (Oryctolagus cuniculus)           70
